- target_under_test: T1, human 5T4-His protein (human, UniProt Q13641 32-355)
- T1 construct: also called recombinant 5T4 protein (human 5T4-his tag); human 5T4 protein; not shown: His tag
- T1 sequence (looked up): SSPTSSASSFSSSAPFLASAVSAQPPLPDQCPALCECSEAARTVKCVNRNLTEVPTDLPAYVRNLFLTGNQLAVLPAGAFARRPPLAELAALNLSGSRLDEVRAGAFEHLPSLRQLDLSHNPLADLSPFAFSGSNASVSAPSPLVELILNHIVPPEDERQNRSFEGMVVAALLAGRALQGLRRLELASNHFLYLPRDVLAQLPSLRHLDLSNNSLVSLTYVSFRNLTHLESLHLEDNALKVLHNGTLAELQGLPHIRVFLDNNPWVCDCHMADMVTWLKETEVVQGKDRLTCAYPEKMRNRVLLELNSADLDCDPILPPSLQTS
- test_method_notes: SPR Biacore, Protein A capture
Give measured pKd for each item. Keep answers brief.
# pKd is unitless: minus log10 of the molar concentration; print number only

QUERY: # return recorded pKd for input 393E9_hVH2_hVL5 (antibody, V domains shown, humanized) VH: EVQLVESGGGLIQPGGSLRLSCAASGFTFTDYYMSWVRQPPGKGLEWVGFIRNKGNGYTTENSASVKGRFTISRDNSKSTLYLQMNSLRAEDTAVYYCARYRGNPHYAMDYWGQGTLVTVSS VL: EIVLTQSPGTLSLSPGERATLSCRASESVEFYGTSFLQWYQQKPGQAPRLLIYGASNVESGIPDRFSGSGSGTDFTLTISRLEPEDIAVYFCQQSRKVPSTFGGGTKVEIK
RESULT: 9.25

QUERY: # return recorded pKd for input 393E9_hVH3_hVL1 (antibody, V domains shown, humanized) VH: QVQLVESGGGVVQPGGSLRLSCAASGFTFTDYYMSWVRQAPGKGLEWVGFIRNKGNGYTTENSASVKGRFTISRDNSKSTLYLQMNSLRAEDTAVYYCARYRGNPHYAMDYWGQGTLVTVSS VL: DIVLTQSPDSLAVSLGERATINCRASESVEFYGTSFLQWYQQKPGQPPKLLIYGASNVESGVPDRFSGSGSGTDFTLTISSLQAEDIAVYFCQQSRKVPSTFGGGTKVEIK
RESULT: 9.30

QUERY: # return recorded pKd for input 393E9_hVH4_hVL3 (antibody, V domains shown, humanized) VH: EVQLVESGGGLVQPGGSLRLSCAASGFTFTDYYMSWVRQAPGKGLEWVGFIRNKGNGYTTENSASVKGRFTISRDNSKSSLYLQMNSLKTEDTAVYYCARYRGNPHYAMDYWGQGTLVTVSS VL: DIQLTQSPSSLSASVGDRVTITCRASESVEFYGTSFLQWYQQKPGKAPKLLIYGASNVESGVPSRFSGSGSGTDFTLTISSLQPEDIATYFCQQSRKVPSTFGGGTKVEIK
RESULT: 9.15

QUERY: # return recorded pKd for input 393E9_hVH2_hVL4 (antibody, V domains shown, humanized) VH: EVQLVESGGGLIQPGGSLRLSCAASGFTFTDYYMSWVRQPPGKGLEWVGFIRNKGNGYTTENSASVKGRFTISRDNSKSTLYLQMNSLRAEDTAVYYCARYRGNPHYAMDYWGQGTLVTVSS VL: DIVLTQSPLSLPVTPGEPASISCRASESVEFYGTSFLQWYLQKPGQSPQLLIYGASNVESGVPDRFSGSGSGTDFTLKISRVEAEDIGVYFCQQSRKVPSTFGGGTKVEIK
RESULT: 9.19

QUERY: # return recorded pKd for input 393E9_hVH3_hVL5 (antibody, V domains shown, humanized) VH: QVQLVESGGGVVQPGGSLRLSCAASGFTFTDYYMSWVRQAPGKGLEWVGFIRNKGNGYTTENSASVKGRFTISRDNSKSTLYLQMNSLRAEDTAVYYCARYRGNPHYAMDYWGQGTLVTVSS VL: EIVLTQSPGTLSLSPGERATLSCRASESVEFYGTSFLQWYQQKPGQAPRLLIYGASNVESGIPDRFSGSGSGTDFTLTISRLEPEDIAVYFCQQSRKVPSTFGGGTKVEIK
RESULT: 9.30
